Test system: IGROV1 ovarian
Assay method text: NCI-60 one-dose screen, 48 h (100 = growth as untreated, 0 = no growth, -100 = all killed)
Measurement context: 10 µM unless noted
The panel holds about 83,000 compounds, 20% with a hit somewhere; the sample as a whole holds those more often.
growth: recorded values
Attribute measured: growth (%)

> print(dat)
                                    molecule  recorded.result
 1  Cc1ccc(S(=O)(=O)N2CCc3ccc(O)c4c3C2Cc2ccc3c(c2-4)OCO3)cc1 (stereo not given)             41.6
 2                    FCOC(C(F)(F)F)C(F)(F)F              111
 3  O=C(NC1CC1)c1cc2n(n1)CC(c1ccccc1)N2 (stereo not given)              100
 4  CCCCOC(=O)C1OC(Oc2ccc3c(C)cc(=O)oc3c2)[C@@H](OC(C)=O)C(OC(C)=O)C1OC(C)=O (stereo not given in full)              101
 5  COc1cccc(C2CC(=O)Nc3cc4c(cc32)CCC4)c1OC (stereo not given)               57
 6  O=C1CCC(N2Cc3c(C#CCCCNC(=O)c4cc5c(o4)C(=O)c4ccccc4C5=O)cccc3C2=O)C(=O)N1 (stereo not given)            -5.62
 7      Clc1ccc(C2=Nc3cccc4cccc(c34)N2)cc1Cl             71.8
 8         O=c1nc(NO)[nH]c(=O)n1Cc1ccc(F)cc1             97.3
 9  O=C(NCc1ccc(F)cc1)C1CN(c2ccc(Cl)cc2)N(c2ccc(Cl)cc2)C1=O (stereo not given)             77.4
10             CCCCCCCCCCCCSC1=CC(=O)C=CC1=O            -26.6
11  CCOC(=O)C1=C(C)N2C(=NC3=C(CCCC/C3=C\c3cc(OC)c(OC)c(OC)c3)C2c2cc(OC)c(OC)c(OC)c2)S1 (stereo not given)             71.6
12  COc1c(O)c2c3c(c1OC)-c1ccccc1CC3N(S(=O)(=O)c1ccc(C)cc1)CC2 (stereo not given)             65.6
13    COc1cc(NC(=O)COc2ccccc2)c(C(N)=O)cc1OC             43.9
14  O=C(N/N=C(\CS(=O)(=O)c1ccccc1)c1cc2cc(Br)ccc2oc1=O)c1ccccc1              110
15  COc1cc(/C=N/NC(=O)c2cnn3c2NC(c2ccccc2)C3)ccc1OC1CCCC1 (stereo not given)             42.6
